Quick reference for T/C among some molecules
System: L1210 leukemia ip in BDF1 mice, survival T/C
Test Method Notes: NCI In Vivo Anticancer Drug Screen. Data for tumor model L1210 Leukemia (intraperitoneal) in B6D2F1 (BDF1) mice
Conditions: endpoint: mean survival time; dose: 100.0 mg/kg/injection; schedule: Q01DX001 (ip); vehicle: saline with Tween-80; higher = longer survival
Inconclusive results and toxic doses are left out.
Assay Readout: T/C

> print(dat)
                                    molecule            result
 1         COc1ccc(Cl)cc1NC(=O)/C=C/c1ccccc1   95 % of control
 2  Cc1ccccc1C(=O)C(C#N)c1ccccc1 (configuration not stated)   90 % of control
 3  CSCC1OC(n2cnc3c(N)nc(Cl)nc32)C(O)C1O (configuration not stated)   95 % of control
 4    N#C/C(N)=C(\C#N)N=Cc1ccc(-c2ccccc2)cc1   97 % of control
 5  CCCC(C)C(=O)OCP(=O)(COC(=O)C(C)CCC)COC(=O)C(C)CCC (configuration not stated)   97 % of control
 6  CCOc1ncnc2c1nnn2C1OC(CO)C(O)C1O (configuration not stated)  104 % of control
 7       O=Cc1ccc(-c2ccc([N+](=O)[O-])cc2)o1   92 % of control
 8  Cc1c(C)c2c(c(C)c1O)CC(CC(=O)CO)CO2 (configuration not stated)   97 % of control
 9  CCCCCCCCCCN1CCN2C(=O)N(CC)CCC2C1 (configuration not stated)   96 % of control
10          COC1(OC)C2(Cl)CCC1(Cl)C(Cl)=C2Cl  100 % of control
11  CC(=O)n1c(O)c(N=NC(=N)N[N+](=O)[O-])c2ccccc21   97 % of control
12  CC(=O)NC1C(OCc2ccccc2)OC(COC(c2ccccc2)(c2ccccc2)c2ccccc2)C(N=[N+]=[N-])C1OCc1ccccc1 (configuration not stated)   86 % of control

---

System: L1210 leukemia ip in BDF1 mice, survival T/C
Test Method Notes: NCI In Vivo Anticancer Drug Screen. Data for tumor model L1210 Leukemia (intraperitoneal) in B6D2F1 (BDF1) mice
Conditions: endpoint: mean survival time; dose: 100.0 mg/kg/injection; schedule: Q01DX001 (ip); vehicle: carboxymethylcellulose (CMC); higher = longer survival
Inconclusive results and toxic doses are left out.
Assay Readout: T/C

> print(dat)
                                    compound            result
 1  COC1OCC2OC(C)(C)OC2C1OS(=O)(=O)c1ccc([N+](=O)[O-])cc1 (stereo not given)   95 % of control
 2                 O=C1NC(=S)S/C1=C\c1ccncc1   89 % of control
 3               CCCCCCCCCC(=O)N(C(C)C)C(C)C  100 % of control
 4  COC1CC(OC(=O)c2ccc([N+](=O)[O-])cc2)C(OC(=O)c2ccc([N+](=O)[O-])cc2)C(C)O1 (stereo not given)   93 % of control
 5  CCC1([N+](=O)[O-])COP(=O)(N2CC2C)OC1 (stereo not given)   98 % of control
 6               O=C1C=CC(=O)C(SCCC(=O)O)=C1  101 % of control
 7                              ClCN(CCl)CCl   94 % of control
 8         O=C(O)CNCCN1CC(=O)N(c2ccccc2)C1=S   93 % of control
 9    CC(=O)N(C)c1ccc(/C=C2\C=Cc3ccccc32)cc1   98 % of control
10             CC1(C)COC(c2ccc3c(c2)OCO3)OC1   96 % of control
11                       CCCCC(CCC)(CCN)CCCC   93 % of control
12  CC(=Nc1ccccc1)C1=C(O)C(Cc2ccccc2)NC1=O (stereo not given)  103 % of control
13       CC(C)CC(N)C(=O)O (stereo not given)   87 % of control
14                         CCCCC(=O)N1CCCCC1  106 % of control
15  CCOC(=O)Nc1cc(NC(c2ccccc2)c2ccccc2)c([N+](=O)[O-])c(NC/C(C)=N/NC(N)=O)n1   95 % of control
16  COC(=O)C(C)NC(=O)C(C)NC(=O)c1cnc2ccccc2n1 (stereo not given)   89 % of control
17                       COc1ccc(CCO)c(OC)c1  100 % of control
18                      CCCCCCC(=O)N(CCC)CCC  112 % of control
19              CCS(=O)(=O)C(CCC(C)C)CCC(C)C  102 % of control
20  O=C1OC2(CCN(Cc3ccccc3)CC2)C(=O)N1c1cccc(Cl)c1   92 % of control
21             CN(/N=N/N(C)c1ccccc1)c1ccccc1  102 % of control
22           Nc1nc(N)c(N=O)c(Nc2ccc(I)cc2)n1  101 % of control
23                CCC[CH2][Sn](=[S])[CH2]CCC  115 % of control
24                         CSc1nc(C)c(C=O)s1  100 % of control
25     Cc1cccn2c(=O)c(/C=N\NC(N)=S)c(Cl)nc12  105 % of control
26  CCN(CC)CCCC(C)Nc1c2ccc(Cl)cc2nc2ccc(OC)cc12 (stereo not given)   96 % of control
27                Cc1ncc(CCO)c2c1OC(C)(C)OC2   98 % of control
28  COc1cc([N+](=O)[O-])c2nc(C)ccc2c1[N+](=O)[O-]  100 % of control
29  Cc1cc(/C=C/C2=[N+](C)c3ccc(F)cc3C2(C)C)c(O)c2ncccc12   98 % of control
30  Cn1c(N)c(N=Nc2ccc(S(=O)(=O)Nc3ncccn3)cc2)c(=O)n(C)c1=O   98 % of control
31  COC1(OC)C2C(Cl)=C(Cl)C1(Cl)C(Br)C2c1ccccc1 (stereo not given)   97 % of control
32                        COc1ccccc1NC(=O)NO   97 % of control
33   COc1cc(O)c([N+](=O)[O-])cc1[N+](=O)[O-]   96 % of control
34  O=C1OC(=O)C23CC=CCC12CC=CC3 (stereo not given)  113 % of control
35  COc1ccc(C(OC(=O)c2ccc([N+](=O)[O-])cc2)c2ccccc2)cc1 (stereo not given)   88 % of control
36  Cc1cc(C)c(C(=O)N/N=C/c2ccc(N(CCCl)CCCl)cc2)c(=O)[nH]1  100 % of control
37  Cc1cccc(C2CCCCC2OS(C)(=O)=O)c1 (stereo not given)  101 % of control
38  Cc1ccc2cc(-c3ccc(C4CCCCC4)cc3)c(N=O)n2c1   96 % of control
39      O=C(Nc1ccc(Cl)c(Cl)c1)Nc1ccc(Cl)cc1O  100 % of control
40            Brc1ccc(/C=C2\C=Cc3ccccc32)cc1   98 % of control

Cited source for all entries: PubChem BioAssay AID248
